tested on: M14 melanoma; experiment: NCI-60 one-dose screen, 48 h (100 = growth as untreated, 0 = no growth, -100 = all killed); settings: 10 µM unless noted
This is part of a sample that, as a whole, favours compounds with a hit. Of some 83,000 tested, about 20% had one in any assay.
# Lookup of reported growth keyed by entry

- smiles input: "O=C(CSc1nc(-c2ccc(Cl)cc2)cn1-c1ccc(Cl)cc1)c1ccc(Br)cc1"
  target under test: "M14 melanoma"
  growth, %: 89.1
- smiles input: "CCOC(=O)/C=C\\C(=O)NC(N)=O"
  target under test: "M14 melanoma"
  growth, %: 96.7
- smiles input: "COc1ccc(NC(=O)c2cc3ccccc3nc2Nc2cc(OC)c(OC)c(OC)c2)cc1"
  target under test: "M14 melanoma"
  growth, %: 55.1

----------
# Lookup of reported growth keyed by entry
test system: OVCAR-8 ovarian; assay: NCI-60 one-dose screen, 48 h (100 = growth as untreated, 0 = no growth, -100 = all killed); conditions: 10 µM unless noted
About 83,000 compounds went through this panel and 20% of them were active in at least one assay; those are over-represented in the sample as a whole.

- compound: "NC(C(=O)O)C(O)c1ccc(OCc2ccccc2)c(OCc2ccccc2)c1 (stereo unspecified)"
  units: "%"
  growth: 99.6
- compound: "COc1ccc(/C=C2\\Oc3cc(OCCN4CCCC4)ccc3C2=O)c(OC)c1"
  units: "%"
  growth: 96.2
- compound: "C/C(=C\\c1csc(C)n1)[C@@H]1C[C@@H]2O[C@]2(C)CCC[C@H](C)[C@H](O)[C@@H](C)C(=O)C(C)(C)[C@@H](O)CC(=O)N1"
  units: "%"
  growth: -74
- compound: "O=C(O)C(=Cc1c2ccccc2cc2ccccc12)C(=O)O"
  units: "%"
  growth: 104
- compound: "Cn1c(=O)c2c(nc3n2CCN(CCc2ccc(OCCN4CCOCC4)cc2)C3)n(C)c1=O"
  units: "%"
  growth: 109
- compound: "Cc1cccc(-n2c(C)nc3ccc(NC(=O)NCCCl)cc3c2=O)c1"
  units: "%"
  growth: 107
- compound: "CCN(CC)CCC(=O)c1cccc2ccccc12"
  units: "%"
  growth: 104
- compound: "Nc1nn2cc(-c3ccc(Cl)s3)nc2c2ccccc12"
  units: "%"
  growth: 105
- compound: "COc1ncc(-c2ccc3ncnc(Nc4cccc(Cl)c4)c3c2)cc1N(S(C)(=O)=O)S(C)(=O)=O"
  units: "%"
  growth: 73.8
- compound: "CN1CCN(CCCOc2ccc3nc(Nc4ccc(C(F)(F)F)c(Cl)c4)ccc3c2)CC1"
  units: "%"
  growth: 31.3
- compound: "CCOC(=O)C1=C(CSC(=S)N(C2CCCCC2)C2CCCCC2)N(C)C(=O)NC1c1ccccc1 (stereo unspecified)"
  units: "%"
  growth: 49.2
- compound: "O=C(CNC(=O)c1cccc2ccccc12)Nc1ccccc1Oc1ccccc1"
  units: "%"
  growth: 13.4
- compound: "CN(C)CCCNC(=O)C(c1ccccc1)c1ccccc1"
  units: "%"
  growth: 102
- compound: "O=S(=O)(NCCNc1cc(-c2cn(-c3ccccc3)nc2-c2ccccc2)ccn1)c1ccc(F)cc1"
  units: "%"
  growth: 83
- compound: "Cc1ccc(OCCn2c(C)nn(-c3ccc(Cl)cc3)c2=O)cc1"
  units: "%"
  growth: 109
- compound: "COc1cccc(-n2cc(-c3nc(Cl)c4ccccc4n3)nn2)c1"
  units: "%"
  growth: 109
- compound: "CCN1C(=O)/C(=c2\\sc3n(c2=O)C2C(NN=3)N(CC)C(=S)N2CC)c2ccccc21 (stereo unspecified)"
  units: "%"
  growth: 100
- compound: "C#CCC1(c2ccc(F)c(F)c2)NS(=O)(=O)c2ccccc21 (stereo unspecified)"
  units: "%"
  growth: 93.9
- compound: "COc1cc(Cn2c(-c3nonc3N)nc3ccccc32)ccc1C"
  units: "%"
  growth: 31.6
- compound: "CCNCc1ccncc1"
  units: "%"
  growth: 103
- compound: "COc1cc(C(=O)OCCCCCCCCCCC[P+](c2ccccc2)(c2ccccc2)c2ccccc2)ccc1O"
  units: "%"
  growth: -62
